- TARGET_DESC: Full length wild-type cereblon CRBN (Homo sapiens (Human), UniProt Q96SW2)
- Sequence (Q96SW2 whole entry): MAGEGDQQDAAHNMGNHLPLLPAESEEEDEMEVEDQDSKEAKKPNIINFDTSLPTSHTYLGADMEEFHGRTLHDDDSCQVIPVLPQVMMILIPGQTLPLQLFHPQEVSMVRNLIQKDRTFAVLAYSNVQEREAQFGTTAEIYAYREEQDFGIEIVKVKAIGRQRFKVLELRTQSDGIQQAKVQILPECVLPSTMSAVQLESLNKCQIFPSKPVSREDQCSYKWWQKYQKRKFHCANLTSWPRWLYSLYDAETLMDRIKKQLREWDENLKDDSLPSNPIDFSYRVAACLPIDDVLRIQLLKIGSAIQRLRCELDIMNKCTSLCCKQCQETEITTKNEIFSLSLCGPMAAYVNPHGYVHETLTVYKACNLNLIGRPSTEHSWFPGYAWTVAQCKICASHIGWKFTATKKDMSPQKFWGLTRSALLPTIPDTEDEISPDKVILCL
- METHOD_DESCRIPTION: Fluorescence polarization (FP) assay, cereblon binding
- CONDITION_SET: wild-type CRBN 80.0 nM, probe 5 nM, FP measured after 12 hours, read-out: rFP IC50
pIC50: −log10 of the molar value.
Measured pIC50 values are reported for all entries that follow.
READOUT_NAME: pIC50

[[record]]
compound = "COc1cc(COC(=O)Nc2cc(F)cc(OC(F)(F)F)c2)cc2c1CN(C1CCC(=O)NC1=O)C2=O (centres unmarked)"
target_desc = "Full length wild-type cereblon CRBN (Homo sapiens (Human), UniProt Q96SW2)"
reported_result = "5.72 to 5.92"

[[record]]
compound = "Cc1ccc(NC(=O)OCc2ccc3c(c2C)C(=O)N(C2CCC(=O)NC2=O)C3)cc1Cl (centres unmarked)"
target_desc = "Full length wild-type cereblon CRBN (Homo sapiens (Human), UniProt Q96SW2)"
reported_result = "≥ 6.22"

[[record]]
compound = "COc1cc(COC(=O)Nc2ccc(-c3ccccc3)nc2)cc2c1CN(C1CCC(=O)NC1=O)C2=O (centres unmarked)"
target_desc = "Full length wild-type cereblon CRBN (Homo sapiens (Human), UniProt Q96SW2)"
reported_result = "5.92 to 6.22"

[[record]]
compound = "COc1cc(COC(=O)Nc2ccc(C3(C)CC3)cc2)cc2c1CN(C1CCC(=O)NC1=O)C2=O (centres unmarked)"
target_desc = "Full length wild-type cereblon CRBN (Homo sapiens (Human), UniProt Q96SW2)"
reported_result = "≥ 6.22"

[[record]]
compound = "COc1cc(COC(=O)Nc2ccc(-c3ccccn3)cc2)cc2c1CN(C1CCC(=O)NC1=O)C2=O (centres unmarked)"
target_desc = "Full length wild-type cereblon CRBN (Homo sapiens (Human), UniProt Q96SW2)"
reported_result = "5.92 to 6.22"

[[record]]
compound = "COc1cc(COC(=O)Nc2ccc(C)c(OC(F)F)c2)cc2c1CN(C1CCC(=O)NC1=O)C2=O (centres unmarked)"
target_desc = "Full length wild-type cereblon CRBN (Homo sapiens (Human), UniProt Q96SW2)"
reported_result = "5.72 to 5.92"

[[record]]
compound = "COc1cc(COC(=O)Nc2cccc(OC(F)F)c2)cc2c1CN(C1CCC(=O)NC1=O)C2=O (centres unmarked)"
target_desc = "Full length wild-type cereblon CRBN (Homo sapiens (Human), UniProt Q96SW2)"
reported_result = "≥ 6.22"

[[record]]
compound = "Cc1ccc(NC(=O)OCc2cc(Br)c3c(c2)C(=O)N(C2CCC(=O)NC2=O)C3)cc1Cl (centres unmarked)"
target_desc = "Full length wild-type cereblon CRBN (Homo sapiens (Human), UniProt Q96SW2)"
reported_result = "< 5.72"

[[record]]
compound = "COc1cc(COC(=O)Nc2ccc(N3CCCC3C)nc2)cc2c1CN(C1CCC(=O)NC1=O)C2=O (stereo in doubt)"
target_desc = "Full length wild-type cereblon CRBN (Homo sapiens (Human), UniProt Q96SW2)"
reported_result = "≥ 6.22"

[[record]]
compound = "O=C1CCC(N2Cc3c(F)cc(COC(=O)Nc4cc(F)cc(OC(F)(F)F)c4)cc3C2=O)C(=O)N1 (centres unmarked)"
target_desc = "Full length wild-type cereblon CRBN (Homo sapiens (Human), UniProt Q96SW2)"
reported_result = "< 5.72"

[[record]]
compound = "O=C1CCC(N2Cc3c(F)cc(COC(=O)Nc4cc(F)cc(OC(F)F)c4)cc3C2=O)C(=O)N1 (centres unmarked)"
target_desc = "Full length wild-type cereblon CRBN (Homo sapiens (Human), UniProt Q96SW2)"
reported_result = "< 5.72"

[[record]]
compound = "O=C1CCC(N2Cc3c(F)cc(COC(=O)Nc4ccc(F)c(OC(F)F)c4)cc3C2=O)C(=O)N1 (centres unmarked)"
target_desc = "Full length wild-type cereblon CRBN (Homo sapiens (Human), UniProt Q96SW2)"
reported_result = "5.72 to 5.92"

[[record]]
compound = "COc1cc(COC(=O)Nc2cccc(OC3CC3)c2)cc2c1CN(C1CCC(=O)NC1=O)C2=O (centres unmarked)"
target_desc = "Full length wild-type cereblon CRBN (Homo sapiens (Human), UniProt Q96SW2)"
reported_result = "≥ 6.22"

[[record]]
compound = "COc1cc(COC(=O)Nc2cc(F)cc(Cl)c2)cc2c1CN(C1CCC(=O)NC1=O)C2=O (centres unmarked)"
target_desc = "Full length wild-type cereblon CRBN (Homo sapiens (Human), UniProt Q96SW2)"
reported_result = "5.92 to 6.22"

[[record]]
compound = "Cc1ccc(NC(=O)OCc2cc(Cl)c3c(c2)C(=O)N(C2CCC(=O)NC2=O)C3)cc1Cl (centres unmarked)"
target_desc = "Full length wild-type cereblon CRBN (Homo sapiens (Human), UniProt Q96SW2)"
reported_result = "< 5.72"

[[record]]
compound = "O=C1CCC(N2Cc3c(F)cc(COC(=O)Nc4cc(-c5ccccc5)ccn4)cc3C2=O)C(=O)N1 (centres unmarked)"
target_desc = "Full length wild-type cereblon CRBN (Homo sapiens (Human), UniProt Q96SW2)"
reported_result = "< 5.72"

[[record]]
compound = "Cc1ccc(NC(=O)OCc2cc(C#N)c3c(c2)C(=O)N(C2CCC(=O)NC2=O)C3)cc1Cl (centres unmarked)"
target_desc = "Full length wild-type cereblon CRBN (Homo sapiens (Human), UniProt Q96SW2)"
reported_result = "< 5.72"

[[record]]
compound = "COc1cc(COC(=O)Nc2ccc(C)c(Cl)c2)cc2c1CN(C1CCC(=O)NC1=O)C2=O (centres unmarked)"
target_desc = "Full length wild-type cereblon CRBN (Homo sapiens (Human), UniProt Q96SW2)"
reported_result = "5.92 to 6.22"

[[record]]
compound = "O=C1CCC(N2Cc3c(F)cc(COC(=O)Nc4cccc(OC(F)(F)F)c4)cc3C2=O)C(=O)N1 (centres unmarked)"
target_desc = "Full length wild-type cereblon CRBN (Homo sapiens (Human), UniProt Q96SW2)"
reported_result = "< 5.72"

[[record]]
compound = "O=C1CCC(N2Cc3c(F)cc(COC(=O)Nc4cccc(OC5CC5)c4)cc3C2=O)C(=O)N1 (centres unmarked)"
target_desc = "Full length wild-type cereblon CRBN (Homo sapiens (Human), UniProt Q96SW2)"
reported_result = "5.72 to 5.92"

[[record]]
compound = "O=C1CCC(N2Cc3c(F)cc(COC(=O)Nc4ccc(-c5ccccc5F)nc4)cc3C2=O)C(=O)N1 (centres unmarked)"
target_desc = "Full length wild-type cereblon CRBN (Homo sapiens (Human), UniProt Q96SW2)"
reported_result = "5.72 to 5.92"

[[record]]
compound = "COc1cc(COC(=O)Nc2ccc(F)c(OC(F)F)c2)cc2c1CN(C1CCC(=O)NC1=O)C2=O (centres unmarked)"
target_desc = "Full length wild-type cereblon CRBN (Homo sapiens (Human), UniProt Q96SW2)"
reported_result = "5.92 to 6.22"

[[record]]
compound = "COc1cc(COC(=O)Nc2cnc(-c3ccccc3)c(C)c2)cc2c1CN(C1CCC(=O)NC1=O)C2=O (centres unmarked)"
target_desc = "Full length wild-type cereblon CRBN (Homo sapiens (Human), UniProt Q96SW2)"
reported_result = "≥ 6.22"

[[record]]
compound = "COc1cc(COC(=O)Nc2ccc(N3CCCCC3C)nc2)cc2c1CN(C1CCC(=O)NC1=O)C2=O (centres unmarked)"
target_desc = "Full length wild-type cereblon CRBN (Homo sapiens (Human), UniProt Q96SW2)"
reported_result = "≥ 6.22"

[[record]]
compound = "O=C1CCC(N2Cc3c(F)cc(COC(=O)Nc4cc(Cl)cc(OC(F)F)c4)cc3C2=O)C(=O)N1 (centres unmarked)"
target_desc = "Full length wild-type cereblon CRBN (Homo sapiens (Human), UniProt Q96SW2)"
reported_result = "< 5.72"

[[record]]
compound = "COc1cc(COC(=O)Nc2ccc(C(C)(C)C)cc2)cc2c1CN(C1CCC(=O)NC1=O)C2=O (centres unmarked)"
target_desc = "Full length wild-type cereblon CRBN (Homo sapiens (Human), UniProt Q96SW2)"
reported_result = "5.92 to 6.22"

[[record]]
compound = "COc1cc(COC(=O)Nc2ccc(F)c(Cl)c2)cc2c1CN(C1CCC(=O)NC1=O)C2=O (centres unmarked)"
target_desc = "Full length wild-type cereblon CRBN (Homo sapiens (Human), UniProt Q96SW2)"
reported_result = "5.92 to 6.22"

[[record]]
compound = "COc1cc(COC(=O)Nc2cccc(OC(F)(F)F)c2)cc2c1CN(C1CCC(=O)NC1=O)C2=O (centres unmarked)"
target_desc = "Full length wild-type cereblon CRBN (Homo sapiens (Human), UniProt Q96SW2)"
reported_result = "5.92 to 6.22"

[[record]]
compound = "COc1cc(COC(=O)Nc2ccc(C(C)(C)C)nc2)cc2c1CN(C1CCC(=O)NC1=O)C2=O (centres unmarked)"
target_desc = "Full length wild-type cereblon CRBN (Homo sapiens (Human), UniProt Q96SW2)"
reported_result = "≥ 6.22"

[[record]]
compound = "COc1cc(COC(=O)Nc2cc(Cl)cc(OC(F)F)c2)cc2c1CN(C1CCC(=O)NC1=O)C2=O (centres unmarked)"
target_desc = "Full length wild-type cereblon CRBN (Homo sapiens (Human), UniProt Q96SW2)"
reported_result = "5.92 to 6.22"

[[record]]
compound = "CC1(c2ccc(NC(=O)OCc3cc(F)c4c(c3)C(=O)N(C3CCC(=O)NC3=O)C4)cc2)CC1 (centres unmarked)"
target_desc = "Full length wild-type cereblon CRBN (Homo sapiens (Human), UniProt Q96SW2)"
reported_result = "< 5.72"

[[record]]
compound = "O=C1CCC(N2Cc3c(F)cc(COC(=O)Nc4ccc(-c5ccccn5)cc4)cc3C2=O)C(=O)N1 (centres unmarked)"
target_desc = "Full length wild-type cereblon CRBN (Homo sapiens (Human), UniProt Q96SW2)"
reported_result = "≥ 6.22"

